# Test system: GH3-TRE-Luc cell line
# Condition Summary: read-out: AC50 (uM) modified / 1000; Tox21_110001=Tox21_303218; viability, 1 nM T3 present, 24 h
Recorded Metric: CC50 (µM)
// return numeric value only (unit: µM, not printed)

Query: Suppose we examine the compound Cc1cc(O)c2c(c1)C(=O)c1cc(O)cc(O)c1C2=O [Emodin] ; what CC50 value has been reported?
Response: 34.9

* * *

# Measurement Protocol: in vitro
# Condition Summary: rat, gh3-tre-luc cells, AC50 (uM) modified / 1000, Tox21_110001=Tox21_201057; viability, 1 nM T3 present, 24 h
Recorded Metric: CC50 at 24 h

Query: CC50 at 24 h lookup needed for c1cc2c3c(c1)ccc1cccc(c13)C2 [4H-Cyclopenta(def)phenanthrene] , thanks.
Response: > 90 µM

* * *

# Measurement Protocol: in vitro
# Condition Summary: rat, gh3-tre-luc cells, AC50 (uM) modified / 1000, Tox21_110001=Tox21_301204; viability, 1 nM T3 present, 24 h
Recorded Metric: CC50 at 24 h

Query: What CC50 at 24 h value was documented for this compound, NNCCO [2-Hydroxyethylhydrazine] ?
Response: > 90 µM

* * *

# Measurement Protocol: in vitro
# Condition Summary: rat, gh3-tre-luc cells, AC50 (uM) modified / 1000, Tox21_110001=Tox21_201619; viability, 1 nM T3 present, 24 h
Recorded Metric: CC50 at 24 h

Query: // returns reported CC50 at 24 h for input CCNc1nc(Cl)nc(NC(C)(C)C#N)n1 [Cyanazine]
Response: > 90 µM

* * *

# Tested on: GH3-TRE-Luc cell line
# Condition Summary: read-out: AC50 (uM) modified / 1000; Tox21_110001=Tox21_110209; viability, 1 nM T3 present, 24 h
Recorded Metric: CC50 (µM)
Give just the numeric value; µM need not be written.

Query: What value of measured CC50 is listed for O=C(Nc1ccc([N+](=O)[O-])cc1Cl)c1cc(Cl)ccc1O [Niclosamide] ?
Response: 0.618

* * *

# Measurement Protocol: in vitro
# Condition Summary: rat, gh3-tre-luc cells, AC50 (uM) modified / 1000
Recorded CC50 at 24 h for the following molecules

O=C(CO)[C@@H](O)[C@H](O)[C@@H](O)CO [L-(-)-Sorbose] = > 50 µM
Cc1cc(O)cc2c1O[C@](C)(CCC[C@H](C)CCC[C@H](C)CCCC(C)C)CC2 [D-delta-Tocopherol] = > 50 µM

Query: Report CC50 at 24 h for CC(=O)NCc1c(I)c(NC(C)=O)c(I)c(C(=O)O)c1I [Iodamide] please.
Response: > 50 µM

Query: Endpoint output: CC50 at 24 h of CCCCCCCCCCCCCCCC(=O)OC[C@@H](COP(=O)([O-])OCC[N+](C)(C)C)OC(=O)CCCCCCCCCCCCCCC . Value?
Response: > 50 µM

Query: Query (molecule): CCCCC[C@@H](O)[C@H]1C(=O)O[C@H](C)[C@@H](O)/C=C/C=C/C=C/C=C/C=C(\C)[C@@H](O)[C@H](O)[C@H](O)C[C@H](O)C[C@H](O)C[C@H](O)C[C@H](O)C[C@@H]1O [Pentamycin] ; field requested: CC50 at 24 h
Response: > 50 µM

Query: Report CC50 at 24 h for Cc1cc(C)cc(C)c1 [1,3,5-Trimethylbenzene] please.
Response: > 90 µM

Query: Requested field: CC50 at 24 h. Item: Cc1c(C)n(CCN(C)C)c2ccc(C(=O)OCCN(C)C)cc12 [Amindocate]
Response: 34.1 µM

Query: What measured CC50 at 24 h goes with CCCCCCOc1ccc(N)cc1 [4-Hexyloxyaniline] ?
Response: > 90 µM

* * *

# Measurement Protocol: in vitro
# Condition Summary: rat, gh3-tre-luc cells, AC50 (uM) modified / 1000, Tox21_110001=Tox21_201723; viability, 1 nM T3 present, 24 h
Recorded Metric: CC50 at 24 h

Query: Quick one: CC50 at 24 h for Nc1ccc(Cc2ccc(N)cc2)cc1 ?
Response: > 90 µM

* * *

# Measurement Protocol: in vitro
# Condition Summary: rat, gh3-tre-luc cells, AC50 (uM) modified / 1000, Tox21_110001=Tox21_111800; viability, 1 nM T3 present, 24 h
Recorded Metric: CC50 at 24 h

Query: GET /values?readout=CC50 at 24 h&item= CCOC(=O)/C=C(C)/C=C/C[C@@H](C)CCCC(C)C [(7S)-Hydroprene]
Response: > 50 µM

* * *

# Test system: GH3-TRE-Luc cell line
# Condition Summary: read-out: AC50 (uM) modified / 1000; Tox21_110001=Tox21_110649; viability, 1 nM T3 present, 24 h
Recorded Metric: CC50 (µM)
Report the value in µM with no unit label.

Query: Need CC50 of COC(=O)Nc1nc2ccc(Sc3ccccc3)cc2[nH]1 , thanks.
Response: 0.23

* * *

# Measurement Protocol: in vitro
# Condition Summary: rat, gh3-tre-luc cells, AC50 (uM) modified / 1000, Tox21_110001=Tox21_202716; viability, 1 nM T3 present, 24 h
Recorded Metric: CC50 at 24 h

Query: CC50 at 24 h; subject: BrCCCBr [1,3-Dibromopropane]
Response: > 100 µM

* * *

# Measurement Protocol: in vitro
# Condition Summary: rat, gh3-tre-luc cells, AC50 (uM) modified / 1000
Where a name gives a salt, the structure may show the parent alone.
Recorded Metric: CC50 at 24 h

Past entries and their recorded results:
O=C(O)C(=O)Cc1ccccc1 = > 90 µM
C[C@H]1O[C@H](O[C@H]2[C@H](O)[C@@H](O)[C@@H](O)[C@H](O)[C@@H]2O)[C@@H](N)C[C@@H]1NC(=N)C(=O)O [Kasugamycin hydrochloride] = > 90 µM
CCCC(=O)C(C)=O = > 90 µM
CCCCCCCCCCCCCCCC[N+](C)(C)C [Hexadecyl trimethyl ammonium chloride] = 12.8 µM

Moving on to the next compound.
Query: Please report the recorded CC50 at 24 h for O=[N+]([O-])c1cccc2cccnc12 .
Response: > 90 µM

* * *

# Measurement Protocol: in vitro
# Condition Summary: rat, gh3-tre-luc cells, AC50 (uM) modified / 1000, Tox21_110001=Tox21_112876; viability, 1 nM T3 present, 24 h
Recorded Metric: CC50 at 24 h

Query: # CC50 at 24 h lookup, item CC(C)=CCN1CC[C@]2(C)c3cc(O)ccc3C[C@H]1[C@H]2C [(+)-Pentazocine succinate]
Response: > 90 µM

* * *

# Measurement Protocol: in vitro
# Condition Summary: rat, gh3-tre-luc cells, AC50 (uM) modified / 1000
Where a name gives a salt, the structure may show the parent alone.
Recorded Metric: CC50 at 24 h

Examples with their reported CC50 at 24 h follow.
CCOS(=O)(=O)OCC [Diethyl sulfate] = > 90 µM
O=S(=O)(O)c1ccc2ccccc2c1 [Sodium 2-naphthalenesulfonate] = > 90 µM
c1coc(Cn2cccc2)c1 = > 90 µM

Field: next compound
Query: Give the measured CC50 at 24 h of COc1ccc(S(=O)(=O)N2c3ccc(Cl)cc3[C@](O)(c3ccccc3Cl)[C@@H]2C(=O)N2CCC[C@H]2C(N)=O)cc1OC .
Response: > 50 µM

* * *

Recorded CC50 at 24 h by entry
# Measurement Protocol: in vitro
# Condition Summary: rat, gh3-tre-luc cells, AC50 (uM) modified / 1000
Where a name gives a salt, the structure may show the parent alone.

// solved cases for CC50 at 24 h follow
NC(=S)c1c(Cl)cccc1Cl [Chlorthiamid] = > 90 µM
CN(C)CCN(C)CCO = > 90 µM
OCCCNc1ccccc1 [3-Anilinopropan-1-ol] = > 50 µM

Query: Bench note: what CC50 at 24 h did CC(C)C[C@H](NC(=O)[C@@H](O)[C@H](N)Cc1ccccc1)C(=O)O [Ubenimex hydrochloride] show?
Response: 1.62 µM

Query: Fill in: CC50 at 24 h of Clc1ccc(C(Cl)(Cl)Cl)c(Cl)c1 [2,4-Dichloro-1-(trichloromethyl)benzene] is ___
Response: > 90 µM

* * *

# Measurement Protocol: in vitro
# Condition Summary: rat, gh3-tre-luc cells, AC50 (uM) modified / 1000, Tox21_110001=Tox21_300544; viability, 1 nM T3 present, 24 h
Recorded Metric: CC50 at 24 h (µM)
Please give a number only; it is taken to be in µM.

Query: Which CC50 at 24 h value is on record for O=S(=O)(O)C(F)(F)C(F)(F)C(F)(F)C(F)(F)C(F)(F)C(F)(F)C(F)(F)C(F)(F)F [Potassium perfluorooctanesulfonate] ?
Response: 49.4
